Assay: Drug uptake in rat brain at 3 mg/kg measured after 6 hrs
Assay type: ADME, organism-based
Design: dose 3 mg/kg
Settings: read-out: Drug uptake

>  <entry.smiles>
Nc1nc2c(c3nn(Cc4ccccc4)c(=O)n13)CCc1ccccc1-2

>  <concentration at 6 h [ng/g]>
10

$$$$
>  <entry.smiles>
CN(C)CCn1ncc2c1nc(N)n1c(=O)n(Cc3cccc(Cl)c3)nc21

>  <concentration at 6 h [ng/g]>
39

$$$$
>  <entry.smiles>
C=Cn1ncc2c1nc(N)n1c(=O)n(Cc3ccccc3)nc21

>  <concentration at 6 h [ng/g]>
10

$$$$

----------
Known inhibition in vivo at 10 mg/kg of a selection of compounds
Tested on: Rattus norvegicus
Test: Inhibition of haloperidol -induced catalepsy in rat at 10 mg/kg, po measured after 1 hr
Format: functional

>  <compound>
C=Cn1ncc2c1nc(N)n1c(=O)n(Cc3cccc(Cl)c3)nc21

>  <unit.abbrev>
%

>  <inhibition in vivo at 10 mg/kg>
13

$$$$
>  <compound>
C=Cn1ncc2c1nc(N)n1c(=O)n(Cc3ccccc3)nc21

>  <unit.abbrev>
%

>  <inhibition in vivo at 10 mg/kg>
0

$$$$
>  <compound>
COCCOc1ccc(N2CCN(CCn3ncc4c3nc(N)n3nc(-c5ccco5)nc43)CC2)cc1 [PRELADENANT]

>  <unit.abbrev>
%

>  <inhibition in vivo at 10 mg/kg>
75

$$$$
>  <compound>
Nc1nc2c(c3nn(Cc4ccccc4)c(=O)n13)CCc1ccccc1-2

>  <unit.abbrev>
%

>  <inhibition in vivo at 10 mg/kg>
0

$$$$
>  <compound>
CN(C)CCn1ncc2c1nc(N)n1c(=O)n(Cc3cccc(Cl)c3)nc21

>  <unit.abbrev>
%

>  <inhibition in vivo at 10 mg/kg>
13

$$$$
